All values here come from patent US20250361322A1.

Would you kindly list EC50 for each of these binders?
target: T1, E. coli-derived TF (human (Example 17 does not restate the …, UniProt P13726 33-251)); assay: protein ELISA, plate coated with E. coli-derived TF-His, antibody titrated, HRP secondary, luminescence
T1 construct: also called E. coli-derived TF-His; E. coli-derived TF protein
Give the number; pM is assumed, so skip it.

Request: Need EC50, item 39A (antibody, human IgG1, V domains shown, Human IgG1; also called antibody designated 39A) VH: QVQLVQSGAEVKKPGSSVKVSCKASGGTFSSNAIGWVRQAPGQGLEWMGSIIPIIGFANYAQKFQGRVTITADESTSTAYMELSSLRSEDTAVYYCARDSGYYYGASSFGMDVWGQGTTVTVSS VL: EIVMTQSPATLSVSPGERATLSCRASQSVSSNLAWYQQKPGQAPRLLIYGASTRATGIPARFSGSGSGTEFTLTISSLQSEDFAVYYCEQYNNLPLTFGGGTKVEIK
Result: 340

Request: Consider the binder shown here: 25A3 (antibody, human IgG1, V domains shown, Human IgG1; also called antibody designated 25A3) VH: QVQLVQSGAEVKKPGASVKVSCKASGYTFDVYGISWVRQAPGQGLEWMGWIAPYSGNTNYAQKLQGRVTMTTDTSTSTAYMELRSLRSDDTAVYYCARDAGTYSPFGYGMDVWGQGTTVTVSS VL: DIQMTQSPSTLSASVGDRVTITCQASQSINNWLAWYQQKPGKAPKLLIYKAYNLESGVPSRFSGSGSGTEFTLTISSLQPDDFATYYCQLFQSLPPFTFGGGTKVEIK What is its recorded EC50?
Result: 360

Request: Can you share its EC50? I mean this binder: 25A (antibody, human IgG1, V domains shown, Human IgG1; also called antibody designated 25A) VH: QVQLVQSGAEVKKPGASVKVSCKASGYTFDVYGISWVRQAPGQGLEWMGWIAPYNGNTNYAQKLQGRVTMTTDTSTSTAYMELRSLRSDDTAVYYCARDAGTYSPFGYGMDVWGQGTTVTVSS VL: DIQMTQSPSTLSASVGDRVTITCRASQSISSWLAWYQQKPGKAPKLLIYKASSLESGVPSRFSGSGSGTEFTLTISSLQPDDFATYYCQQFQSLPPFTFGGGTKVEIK
Result: 350

Request: Using the record for 54E (antibody, human IgG1, V domains shown, Human IgG1; also called antibody designated 54E) VH: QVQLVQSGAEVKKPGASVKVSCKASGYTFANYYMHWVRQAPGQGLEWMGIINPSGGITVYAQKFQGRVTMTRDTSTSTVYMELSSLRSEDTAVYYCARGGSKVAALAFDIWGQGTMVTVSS VL: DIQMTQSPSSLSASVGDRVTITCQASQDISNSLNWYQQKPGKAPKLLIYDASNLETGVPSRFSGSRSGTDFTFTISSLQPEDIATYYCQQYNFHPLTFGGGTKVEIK , report its EC50.
Result: 380
